# Tested on: RIPK4
# Experimental context: concentration: 1 μM, replicates: in singlicate; n = 1;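 further: KINOMEscan kinase panel screen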
Result type: %Inh (%)
# value in %; strip the unit string

> print(dat)
                                smiles.repr  measured.target  test.result
1  Nc1ncc(-c2ccc3nccc(-c4ccncc4)c3c2)cc1S(=O)(=O)N1CCCCC1            RIPK4            5
2          CNc1nccc(-c2ccc3c(N)n[nH]c3c2)n1            RIPK4           41

// next item, %Inh requested
Give me measured %Inh, please, for this molecule: "Cc1ccc(O)cc1Nc1ccnc2ccc(C(C)(C)C)cc12" 41

* * *

# Tested on: PRKCI
# Experimental context: concentration: 1 μM, replicates: in singlicate; n = 1
# %Inh >= 9% gives T, anything below gives F

> print(dat)
                                   molecule  category
1  CS(=O)(=O)c1cccc(CNc2nc(Nc3ccc4c(c3)CCC(=O)N4)ncc2C(F)(F)F)c1         T
2  N#CC1(c2cccc(C(=O)Nc3cccc(Oc4ccc5nc(NC(=O)C6CC6)sc5n4)c3)c2)CC1         T
3     O=C(Nc1n[nH]c2cc(-c3cccs3)ccc12)C1CC1         F

Could you verify whether the entry "Cn1cc(-c2ccc3c(c2)CCN3C(=O)Cc2cc(F)cc(F)c2F)c2c(N)ncnc21" shows %Inh of no less than 9%? F

Confirm if %Inh reported for the molecule Cl.Cl.NCC(NC(=O)c1cc(-c2cccnc2)c(-c2ccnc3[nH]ccc23)s1)c1ccccc1 (stereo not shown) is 9% or above. T

Could you please find out whether "COC(=O)Nc1nc2cc(Oc3ccc(NC(=O)Nc4cccc(SC)c4)cc3)ccc2[nH]1.Cl" has %Inh that meets 9% or exceeds it? F

Determine whether measured %Inh meets or exceeds 9% for "Cc1cc(-c2c(-c3ccc(F)cc3)ncn2CCCN2CCOCC2)nc(N)n1" T

hey, is %Inh for this one >= 9%? "COC(=O)Nc1nc2ccc(Oc3ccc(NC(=O)Nc4cc(C(F)(F)F)ccc4F)cc3)cc2[nH]1.Cl" T

Does %Inh meet or surpass 9% for "CN(c1ccc(F)c(NC(=O)c2cccc(OC(C)(C)C#N)c2Cl)c1)c1ccc2nc(NC(=O)C3CC3)sc2n1" ? F

Dear colleague, could you confirm whether Cc1ccc(-c2ccc3occ(-c4ccc(S(C)=O)cc4)c3c2)nn1 (stereo not shown) has %Inh at or above 9%? F

Kindly determine if %Inh recorded for "O=C(Nc1c(F)cccc1F)c1cc(C(=O)c2ccccc2F)c[nH]1" is above or exactly 9%. F

Would you say "Fc1cc(Cl)ccc1Nc1ccnc2cc(-c3ccc(CN4CCSCC4)o3)ccc12" shows %Inh at minimum 9%? T

Could you please find out whether "CN(C)CCNS(=O)(=O)c1ccc(-c2ccnc3[nH]ccc23)cc1" has %Inh that meets 9% or exceeds it? T

* * *

%Inh values by entry
# System: NEK10
# Experimental context: concentration: 1 μM, replicates: in singlicate; n = 1
Give your result as the value with the unit written after it.

See these solved cases before continuing.
> print(dat)
                                   molecule  test.result
1  COc1cccc(NC(=O)NCCNc2ccnc(Nc3ccc(F)cc3)n2)c1           0%
2    O=C(Nc1n[nH]c2nc(-c3ccccc3)ccc12)C1CC1           0%
3  Cn1cc(-c2ccc3c(c2)CCN3C(=O)Cc2cc(F)cc(F)c2F)c2c(N)ncnc21          10%
4                     CN(C)c1ncnc2nc[nH]c12          21%
5  Cl.Cl.NCC(NC(=O)c1cc(-c2cccnc2)c(-c2ccnc3[nH]ccc23)s1)c1ccccc1 (stereo not drawn)          79%

// fetch %Inh given entry "CCn1c(-c2nonc2N)nc2c(-c3ccccc3)ncc(OCCCN)c21.O=C(O)C(F)(F)F.O=C(O)C(F)(F)F" 9%

* * *

# Tested on: SYK
# Experimental context: concentration: 1 μM, replicates: in singlicate; n = 1
Assign labels as follows, please: Yes for %Inh below 20%; No for %Inh equal to or exceeding 20%.

Known results for molecules:
> print(dat)
                                   molecule  category
1  COc1cc(Nc2nccc(N3CCC(NC(=O)Nc4ccc5c(c4)OCO5)C3)n2)cc(OC)c1OC (centres unmarked)        No
2  COc1cccc(-c2nc(-c3ccccc3)[nH]c2-c2ccncc2)c1        No
3           Nc1cccc(-c2ccc3c(N)n[nH]c3c2)c1        No
4  CN(c1ccc(NC(=O)Nc2cccc(Cl)c2)cc1)c1ccnc(N)n1.Cl       Yes
5  CN(C)CCOc1ccc(-c2cc(-c3ccc(Cl)c(O)c3)c(-c3ccncc3)[nH]2)cc1.Cl.Cl       Yes
6  COc1ccc(NC(=O)c2ccoc2)cc1-c1ccc(C(=O)NCC2CC2)cc1       Yes
7               CCn1cnc2c(NCc3ccccc3)ncnc21       Yes

Now take the following molecule into account.
Consider the molecule "CS(=O)(=O)c1cccc(CNc2nc(Nc3ccc4c(c3)CCC(=O)N4)ncc2C(F)(F)F)c1" . Is its %Inh strictly less than 20%? No

* * *

The following compounds are listed with their measured %Inh values.
# Tested on: AURKC
# Experimental context: concentration: 1 μM, replicates: in singlicate; n = 1
State the answer as a number, implicitly in %.

> print(dat)
                                   compound  test.result
1  CN(c1ccc(NC(=O)Nc2cccc(Cl)c2)cc1)c1ccnc(N)n1.Cl           70
2  O=C(O)C(F)(F)F.O=c1[nH]ccc2nc(N[C@@H]3CCNC3)nc(Nc3ccc4c(c3)S(=O)(=O)CC4)c12           87
3  Cc1cc(-c2ccnc(Nc3cccc(C#N)c3)n2)cc(C)c1O           70

Give the measured %Inh for "Cl.N#CCc1ccc(Nc2nccc(Nc3ccc(Oc4ccccc4)cc3)n2)cc1" 34

For the compound "Cc1ccc(Nc2ccnc(Nc3ccc(C)c(F)c3)n2)cc1O.Cl" , give its measured %Inh value. 19

Determine from records and report %Inh for "COc1cccc(C2=C(Nc3cccc(O)c3)C(=O)NC2=O)c1" 0

Find the measured %Inh of "Cn1cc(-c2cnc(N)c3c(-c4ccc5c(c4)CCN5C(=O)Cc4ccccc4)csc23)cn1" and report it. 92.2

Give the measured %Inh for "Cc1ccc(O)cc1Nc1ccnc2ccc(C(C)(C)C)cc12" 24

Indicate its recorded %Inh; the compound in question is "Cc1ccc(NC(=O)c2ccnc(N3CCCCC3)c2)cc1-c1ccc(C(=O)NCC2CC2)cc1" 35

Complete the entry with %Inh for "CCNC(=O)/C=C/c1n[nH]c2cc(Sc3ccccc3C(=O)NC)ccc12" 84

Report measured %Inh; entry is "Nc1ncc(-c2ccc3nccc(-c4ccncc4)c3c2)cc1S(=O)(=O)N1CCCCC1" 35

Answer with reported %Inh of Cl.Cl.NCC(NC(=O)c1cc(-c2cccnc2)c(-c2ccnc3[nH]ccc23)s1)c1ccccc1 (centres unmarked) 36

Give %Inh for "Cc1cccc(Nc2nc(NCCN)ncc2C(N)=O)c1" 25

Let me know recorded %Inh for "Nc1ncc(-c2cn[nH]c2)c2scc(-c3ccc4c(c3)CCN4C(=O)Cc3ccccc3)c12" , thanks. 87

* * *

Reported %Inh is given for each of the following molecules.
# System: NEK4
# Experimental context: concentration: 1 μM, replicates: in singlicate; n = 1
The answer is to be given in %; state only the numeric part.

Example entries begin here.
> print(dat)
                                   molecule  value.unit  test.result
1  Fc1cc(Cl)ccc1Nc1ccnc2cc(-c3ccc(CN4CCSCC4)o3)ccc12 [GW560106]           %            0
2  CCNc1nccc(-c2c(-c3ccc(F)cc3)ncn2C2CCN(C)CC2)n1           %            0
3  N#CC1(c2cccc(C(=O)Nc3cccc(Oc4ccc5nc(NC(=O)C6CC6)sc5n4)c3)c2)CC1           %            0

Given Nc1cccc(-c2ccc3c(N)n[nH]c3c2)c1 [GSK2193613] , respond with its %Inh. 0

In one line, give reported %Inh of the entry CN1CCN(Cc2ccc(NC(=O)Nc3ccc(N(C)c4ccnc(Nc5ccc(CS(C)(=O)=O)cc5)n4)cc3)cc2)CC1.Cl [GW827654] . 24

* * *

# System: PIP5K2B
# Experimental context: concentration: 1 μM, replicates: in singlicate; n = 1
Result type: %Inh

> print(dat)
                                   molecule  result.type  test.result
1  COc1cccc(NC(=O)NCCNc2ccnc(Nc3ccc(F)cc3)n2)c1 [GSK1379879]         %Inh          13%
2         CN(C)c1ncnc2nc[nH]c12 [SKF-31736]         %Inh           0%
3  CN(C)CCOc1ccc(-c2cc(-c3ccc(Cl)c(O)c3)c(-c3ccncc3)[nH]2)cc1.Cl.Cl [SB-684387]         %Inh           7%
4  Cl.Cl.NC(CNC(=O)c1cc(Br)c(-c2ccnc3[nH]ccc23)s1)c1ccccc1 (stereo not drawn) [GSK1322949]         %Inh          86%
5  Cc1ccccc1CC(=O)N1CCc2cc(-c3cn(C)c4ncnc(N)c34)ccc21 [GSK2603346]         %Inh           0%

Consider now this further molecule.
For the molecule c1ccc(Oc2ccc(Nc3ccnc4cc(-c5ccc(CN6CCCCC6)o5)ccc34)cc2)nc1 [GW567143] , give its measured %Inh value. 0%
